- Test system: ACHN renal
- assay: NCI tumour cell line growth inhibition, 48 h
Where a SMILES comes first, the peptide text is derived from it. The star is where a group is joined. Cbz = O=C(OCc1ccccc1)*; Bn = c1ccc(C*)cc1
Reported TGI is given for each of the following molecules.
recorded.metric: TGI (µM)

>>> observed_value("O=C1Nc2ccccc2/C1=C\\c1nc(-c2ccccc2F)n2ccccc12")
10.9
>>> observed_value("COC(=O)c1cc(O)c(O)c(O)c1-c1c(O)c(O)c(O)c(SC[C@H](NC(=O)OCc2ccccc2)C(=O)OCc2ccccc2)c1C(=O)OC")
61.1
>>> observed_value("COc1ccc2c(O)c(/C=C3\\N=Nc4ncccc43)oc2c1C[C@@H]1CCNC[C@H]1F")
2.83
>>> observed_value("CCOc1ccc(C(C[N+](=O)[O-])Sc2ccccc2N)cc1 (centres undefined)")
23.1
>>> observed_value("S=C(N/N=C/c1ccccn1)N1CC2CCC(CC2)C1")
2.15
>>> observed_value("CCN(CC)CCN1c2nc3ccccc3cc2Sc2cc3ccccc3nc21")
9.29
>>> observed_value("Cc1c2ccncc2c(C)c2c1[nH]c1ccc(Oc3ccccc3)cc12")
17.3
>>> observed_value("COC(=O)C(Cc1ccc(O)cc1)NC(=O)C(COCc1ccccc1)NC(=O)OCc1ccccc1 (centres undefined) (Cbz-Ser(Bn)-Tyr-OMe; configuration not given here)")
31.2
>>> observed_value("N#C/C(=C1\\OC(=N)C(c2ccccc2)C1=O)c1ccccc1 (centres undefined)")
31.8
>>> observed_value("COC1=C2CC(C)CC(OC)C(OC(=O)CN)[C@H](C)/C=C(\\C)C(OC(N)=O)C(OC)/C=C\\C=C(/C)C(=O)NC(=CC1=O)C2=O (some centres undefined)")
13.4
>>> observed_value("O=c1oc2ccccc2c(O)c1C(c1ccc(-c2ccccc2)cc1)c1c(O)c2ccccc2oc1=O")
60.4
>>> observed_value("CCC/C(Cl)=N/OC(NC(=O)OCC)(C(F)(F)F)C(F)(F)F")
32.3
>>> observed_value("COc1cc2ncnc(Nc3ccc(Oc4ccnc(C)c4)c(C)c3)c2cc1NC(=O)CC1CCSS1 (centres undefined)")
8.48

====

Reported TGI is given for each of the following compounds.
- Tested on: SK-MEL-28 melanoma
- assay: NCI tumour cell line growth inhibition, 48 h
recorded.metric: TGI (µM)

>>> observed_value("N#C/C(=C1\\OC(=N)C(c2ccccc2)C1=O)c1ccccc1 (stereo not given)")
20.2
>>> observed_value("CCOC(=O)OC1C(Br)C2CCC1(C)C2(C)C (stereo not given)")
29.3
>>> observed_value("O=[N+]([O-])c1cc(-[n+]2cc([O-])on2)ccc1Cl")
29.6
>>> observed_value("COC(=O)c1ccc(C)cc1CC1Cc2cccc(C)c2C1=O (stereo not given)")
55.7
>>> observed_value("CCCCCCCCCCCCN=C(N)c1ccc(N2CCN(c3ccc(C(N)=NCCCCCCCCCCCC)cc3)CC2)cc1")
26.9
>>> observed_value("COc1c(C(C)(C)C)cc(CC2C(=O)C=CC2=O)cc1C(C)(C)C")
43.4

====

- Test system: HCT-15 colon
- assay: NCI tumour cell line growth inhibition, 48 h
Where a SMILES comes first, the peptide text is derived from it. The star is where a group is joined. Cbz = O=C(OCc1ccccc1)*; Bn = c1ccc(C*)cc1
Reported TGI is given for each of the following compounds.
recorded.metric: TGI

>>> observed_value("COCN(C)c1nc(N(C)C)nc(N(C)C)n1")
"> 100 µM"
>>> observed_value("c1ccc(Oc2ccc(Nc3ncc(-c4ccccc4)o3)cc2)cc1")
"> 25 µM"
>>> observed_value("COC(=O)C(Cc1ccc(O)cc1)NC(=O)C(COCc1ccccc1)NC(=O)OCc1ccccc1 (centres undefined) (Cbz-Ser(Bn)-Tyr-OMe; configuration not given here)")
"33.6 µM"
>>> observed_value("O=C(CCC(=O)Nc1cccc(C(F)(F)F)c1)CC(=O)c1ccc2ccccc2c1")
"> 100 µM"
>>> observed_value("CC(=O)Nc1ccc(S(=O)(=O)N=S(C)C)cc1")
"> 100 µM"
>>> observed_value("Cc1ccc(/C=C/C(=O)c2sc(-n3nc(-c4ccccc4)cc3-c3ccccc3)nc2C)cc1")
"> 100 µM"
>>> observed_value("CC1C[C@]2(C[C@@H](C)C(=O)O2)OC2CC3(C)C4CCC5C(C)(C)OC(=O)CC[C@@]56C[C@@]46CC[C@]3(C)C12 (some centres undefined)")
"> 100 µM"
>>> observed_value("c1ccc(-c2c(-c3cccs3)[nH]c(-c3cccs3)c2-c2ccccn2)nc1")
"40.4 µM"
>>> observed_value("O=C(/C=C/c1ccccn1)c1ccc(OCc2nnc(-c3ccc(Cl)cc3)o2)cc1")
"3.36 µM"

====

- Tested on: CCRF-CEM leukemia
- assay: NCI tumour cell line growth inhibition, 48 h
recorded.metric: TGI

>>> observed_value("COC(=O)c1ccc(C)cc1CC1Cc2cccc(C)c2C1=O (stereo not given)")
"51.3 µM"
>>> observed_value("NC(CCP(=O)(O)O)C(=O)O (stereo not given)")
"> 100 µM"
>>> observed_value("CC1=C(C(=O)Nc2ccc(F)c(Cl)c2)C(c2cccc(Oc3ccccc3)c2)NC(=S)N1 (stereo not given)")
"47.6 µM"
>>> observed_value("Oc1ccc(C(O)(c2ccccc2)c2ccccc2)c2ccccc12")
"1.8 µM"
>>> observed_value("COc1cc2cc3c4c(cc(OC)c(OC)c4c2cc1OC)CCN3C")
"7.27 µM"
>>> observed_value("COc1ccccc1/C=C1\\S/C(=N/Nc2nc(C)c(C(C)=O)s2)NC1=O")
"> 100 µM"
>>> observed_value("O=C(Nc1cc(Cl)ccc1O)c1cccc(Nc2ccnc(C(F)(F)F)c2)c1")
"6.8 µM"
>>> observed_value("CC(=O)C1C(=O)C(=O)N(c2ccc([N+](=O)[O-])cc2)C1=O (stereo not given)")
"> 100 µM"
>>> observed_value("CCC(=O)N1C/C(=C/c2ccc(Br)cc2)C(=O)/C(=C/c2ccc(Br)cc2)C1")
"4.6 µM"
>>> observed_value("CC(=O)OCC1OC(NC(=O)N(CCCl)N=O)C(OC(C)=O)C(OC(C)=O)C1OC(C)=O (stereo not given)")
"> 100 µM"

====

- Tested on: NCI-H522 lung
- assay: NCI tumour cell line growth inhibition, 48 h; in the data active means GI50 below about 0.43 µM; inactive means the rest
Outcome codes: class 1 = active, class 0 = inactive

>>> assigned_class("COc1ccc(C(=O)c2cc3c(N)c(C(=O)Nc4cccc(Br)c4C)sc3nc2C)cc1")
"class 1"
>>> assigned_class("COc1ccc(-c2cn(-c3ccc(OC)c(OC)c3)c(=O)[nH]2)cc1")
"class 0"
>>> assigned_class("CCCCOc1ccc(/C=N/Nc2cc(C)nc3ccc(Br)cc23)cc1")
"class 0"
>>> assigned_class("CCCCCCCCCCNCCSS(=O)(=O)O")
"class 0"
>>> assigned_class("CCC(C)C1=C(O)[N+]2([O-])Oc3ccc(C4=C(O)C(=O)C(c5ccc(O)cc5)=C(O)C4=O)cc3OC2(C(C)CC)C(=O)N1O (stereo not given)")
"class 0"

====

- Tested on: SN12C renal
- assay: NCI tumour cell line growth inhibition, 48 h
Where a SMILES comes first, the peptide text is derived from it. The star is where a group is joined. Cbz = O=C(OCc1ccccc1)*; Bn = c1ccc(C*)cc1
recorded.metric: TGI (µM)

>>> observed_value("CC(NC1=CC(=O)c2cccnc2C1=O)C(O)c1ccccc1 (configuration not stated)")
3.04
>>> observed_value("O=C(N=c1nc(NC(=O)c2ccccc2)ss1)c1ccccc1")
66.6
>>> observed_value("CCCCCCCCCCNCCSS(=O)(=O)O")
3.6
>>> observed_value("COC(=O)C(Cc1ccc(O)cc1)NC(=O)C(COCc1ccccc1)NC(=O)OCc1ccccc1 (configuration not stated) (Cbz-Ser(Bn)-Tyr-OMe; configuration not given here)")
32.7
>>> observed_value("N#CC(C#N)=c1c2ccccc2c(=C(C#N)C#N)c2ccccc12")
30.7
>>> observed_value("CCC(=O)N1C/C(=C/c2ccc(Br)cc2)C(=O)/C(=C/c2ccc(Br)cc2)C1")
1.58
>>> observed_value("S=C(N/N=C/c1ccccn1)N1CC2CCC(CC2)C1")
0.645
>>> observed_value("CCCCOc1ccc(/C=N/Nc2cc(C)nc3ccc(Br)cc23)cc1")
3.25
>>> observed_value("CN(C)CCCNC(=O)c1cc(NS(=O)(=O)c2ccc3c(c2)C(=O)c2ccccc2C3=O)cn1C")
90.7

====

- Tested on: SK-MEL-5 melanoma
- assay: NCI tumour cell line growth inhibition, 48 h
recorded.metric: TGI (µM)

>>> observed_value("O=[N+]([O-])c1cc(-[n+]2cc([O-])on2)ccc1Cl")
21.9
>>> observed_value("O=C(Nc1cc(Cl)cc(Cl)c1)c1cccc(NC2=C(Cl)C(=O)N(Cc3ccccc3)C2=O)c1")
34.8
>>> observed_value("COc1c(C(C)(C)C)cc(CC2C(=O)C=CC2=O)cc1C(C)(C)C")
33.9
>>> observed_value("CC1=CP(=O)(c2ccccc2)C=C(C)C1=C(Cl)Cl (centres undefined)")
31.2
>>> observed_value("O=C(Nc1ccc(Cl)cc1)c1cc([N+](=O)[O-])ccc1O")
8.25
>>> observed_value("CCCCSCC(NC(=O)/C=C/c1c(C)[nH]c(=O)[nH]c1=O)C(=O)OC (centres undefined)")
176
>>> observed_value("CCCCOc1ccc(/C=N/Nc2cc(C)nc3ccc(Br)cc23)cc1")
3.05
>>> observed_value("Cn1c2ccccc2c2ccc3c(c21)C(=O)C(c1ccccc1)=CC3=O")
87.5
>>> observed_value("CN(C)Cc1ccc(NC(=O)c2cncc(C#Cc3cnc(N)c4ncccc34)c2)cc1F")
3.29
>>> observed_value("CO[C@]12S[C@@H]3CCCC[C@@]31C(C)(C)C(=O)N2c1ccccc1")
43.3
>>> observed_value("Nc1ncc(C=O)c(NCC2(CO)CCC2)n1")
86.9
>>> observed_value("CCC(=O)N1C/C(=C/c2ccc(Br)cc2)C(=O)/C(=C/c2ccc(Br)cc2)C1")
2.45
>>> observed_value("O=C(/C=C/c1ccccn1)c1ccc(OCc2nnc(-c3ccc(Cl)cc3)o2)cc1")
3.14
>>> observed_value("CSc1ccc(NC(=O)C2c3[nH]c4ccccc4c3C3CCC(C(C)(C)C)CC3C2C(=O)O)cc1 (centres undefined)")
66
>>> observed_value("O=C(Nc1cc(Cl)ccc1O)c1cccc(Nc2ccnc(C(F)(F)F)c2)c1")
3.83
>>> observed_value("CCOC(=O)OC1C(Br)C2CCC1(C)C2(C)C (centres undefined)")
27.6
>>> observed_value("COc1ccc(C2C(C#N)=C(N)Oc3c2sc2c(Br)cccc32)cc1 (centres undefined)")
10.7
>>> observed_value("COC(=O)c1ccc(C)cc1CC1Cc2cccc(C)c2C1=O (centres undefined)")
11.4
>>> observed_value("CCCCCCCCCCNCCSS(=O)(=O)O")
5.59
>>> observed_value("N#CC(C#N)=c1c2ccccc2c(=C(C#N)C#N)c2ccccc12")
31
>>> observed_value("COc1ccccc1/C=C\\C(=O)C1COCN1 (centres undefined)")
25.1
>>> observed_value("COc1cc2c(c(OC)c1OC)-c1ccc(SC)c(=O)cc1[C@@H](NC(=O)C(F)(F)F)CC2")
0.138

// provenance: PubChem BioAssay (NCI)
